Where do the numbers come from? From ChEMBL document CHEMBL3988442.

- tested.target: Tyrosyl-tRNA synthetase, putative (Trypanosoma cruzi (strain CL Brener)) (UniProt Q4DSP6)
- Sequence (Q4DSP6 as listed by the source): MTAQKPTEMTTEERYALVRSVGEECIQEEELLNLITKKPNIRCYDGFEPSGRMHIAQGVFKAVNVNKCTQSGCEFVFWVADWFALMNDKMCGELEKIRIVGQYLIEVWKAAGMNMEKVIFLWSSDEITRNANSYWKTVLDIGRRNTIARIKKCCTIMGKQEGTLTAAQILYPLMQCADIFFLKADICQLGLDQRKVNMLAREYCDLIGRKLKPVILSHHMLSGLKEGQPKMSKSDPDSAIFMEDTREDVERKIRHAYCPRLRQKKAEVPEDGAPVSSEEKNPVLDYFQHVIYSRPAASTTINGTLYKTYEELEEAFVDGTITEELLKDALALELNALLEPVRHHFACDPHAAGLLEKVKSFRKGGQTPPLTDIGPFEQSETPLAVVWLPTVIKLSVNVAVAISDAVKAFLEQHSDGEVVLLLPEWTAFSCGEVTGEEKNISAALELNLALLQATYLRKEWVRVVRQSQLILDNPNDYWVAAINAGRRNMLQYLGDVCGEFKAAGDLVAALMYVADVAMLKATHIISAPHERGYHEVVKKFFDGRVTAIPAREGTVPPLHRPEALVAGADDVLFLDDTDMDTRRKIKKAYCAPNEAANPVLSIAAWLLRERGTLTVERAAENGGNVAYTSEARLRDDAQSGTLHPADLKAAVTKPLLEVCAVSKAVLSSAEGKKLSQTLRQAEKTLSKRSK
- run.description: Trypanosoma cruzi tyrosyl tRNA synthetase (TcYRS) _High Tyrosine SOP
- Format: functional
- Parameters: scale not given: in the data most compounds retested in dose-response had high values
- applied.conditions: 30 µM
Listed next: entries and their corresponding Percent Effect.
State the answer as a number, implicitly in %.

Sample records with Percent Effect:
{"compound": "CCOc1ccc2[nH]c(=O)c(CN3CCC(O)CC3)cc2c1", "endpoint.label": "Percent Effect", "meas.value": 9.04}
{"compound": "Cc1cnccc1CN1C[C@@H](O)[C@H](Oc2ccccc2)C1", "endpoint.label": "Percent Effect", "meas.value": 2.15}
{"compound": "Cc1nc(CN2CCCC(CCNS(C)(=O)=O)C2)c[nH]1 (configuration not stated)", "endpoint.label": "Percent Effect", "meas.value": 3.72}
{"compound": "CN(C)S(=O)(=O)c1ccc(CN2CCCC2c2ccc[nH]2)o1 (configuration not stated)", "endpoint.label": "Percent Effect", "meas.value": 4.43}
{"compound": "Fc1cccc(CN2CCO[C@H]3[C@@H](OCc4ccccn4)CC[C@@H]32)c1", "endpoint.label": "Percent Effect", "meas.value": 2.63}

Field request: Percent Effect | item: "Cc1cc(N2CCC3(CCC(=O)N(CC4CC4)C3)CC2)nc(N)n1"
9.68

Field request: Percent Effect | item: "CN(Cc1nccn1CC(F)(F)F)C(=O)c1cccc(C#N)c1"
3.19

Field request: Percent Effect | item: "Cn1cc(-c2csc(N3CCOCC3)n2)cn1"
15.8

Field request: Percent Effect | item: "O=C(c1ccc[nH]1)N1CCC2(CC1)C(=O)Nc1ccccc12"
5.38

Field request: Percent Effect | item: CC(C)C(NC(=O)NCCNc1ccccn1)c1cccs1 (configuration not stated)
9.71

Field request: Percent Effect | item: Cc1ccc(CC(=O)N2Cc3nccn3CC(Cn3cccn3)C2)cc1 (configuration not stated)
4.17

Field request: Percent Effect | item: CCc1nc(CN(Cc2cccs2)CC2CCCO2)no1 (configuration not stated)
-3.12

---

- tested.target: Tyrosyl-tRNA synthetase, putative (Trypanosoma cruzi (strain CL Brener))
- run.description: Trypanosoma cruzi tyrosyl tRNA synthetase (TcYRS) _High Tyrosine SOP
- Assay type: functional
- Set-up: scale not given: in the data most compounds retested in dose-response had high values
- applied.conditions: 30 µM
endpoint.label: Percent Effect (%)
State the answer as a number, implicitly in %.

Sample records with Percent Effect:
{"compound": "O=C(NCCc1csc(N2CCCC2)n1)N(C1CCCC1)C1CC1", "endpoint.label": "Percent Effect", "unit.of.measurement": "%", "meas.value": 12.6}
{"compound": "Cn1ccnc1CN1CCN(Cc2noc(-c3ccccc3)n2)CC1", "endpoint.label": "Percent Effect", "unit.of.measurement": "%", "meas.value": 3.68}
{"compound": "CCC(=O)N1CCc2nc3cc(OC)c(OC)cc3c(=O)n2CC1", "endpoint.label": "Percent Effect", "unit.of.measurement": "%", "meas.value": 2.15}
{"compound": "CN1CCc2c(C#N)c(NCc3ccco3)n3cnnc3c2C1", "endpoint.label": "Percent Effect", "unit.of.measurement": "%", "meas.value": 4.25}

Field request: Percent Effect | item: "Cc1cccc(CNCc2c(C)nn(C)c2N2CCOCC2)n1"
8.6

Field request: Percent Effect | item: "COCCN1C[C@H]2[C@@H](C1)N(Cc1ccc(C)o1)CC[C@H]2OC"
8.33

Field request: Percent Effect | item: "CN(C)c1cc(CNC(=O)Nc2ccc(S(C)(=O)=O)nc2)ccn1"
6.22

Field request: Percent Effect | item: CN(Cc1ccsc1)C(=O)CN1CCOC(Cn2cccn2)C1 (stereo not drawn)
0

Field request: Percent Effect | item: CCOCC1CN(Cc2cnn(C)c2)Cc2nn(C)cc21 (stereo not drawn)
-1.58

Field request: Percent Effect | item: c1ccc2c(N3CCCCC3Cn3cncn3)ncnc2c1 (stereo not drawn)
2.73

Field request: Percent Effect | item: "Cn1ccc(CN2CCC(NC(=O)Cc3ccccc3)CC2)cc1=O"
7.18

Field request: Percent Effect | item: CCN1C(=O)CCCC12CCCN(C(=O)c1conc1C)C2 (stereo not drawn)
-4.83

Field request: Percent Effect | item: Cc1nccn1-c1cccc(C2CCCN(C3CCCCC3)C2)n1 (stereo not drawn)
22.6

Field request: Percent Effect | item: Cc1cc(C2CCCN2CCCc2nc3ccccc3o2)on1 (stereo not drawn)
4.43

Field request: Percent Effect | item: "N#CC1(C(=O)NCCCNc2ccc(C(F)(F)F)cn2)CCCC1"
2.45

Field request: Percent Effect | item: "Cc1nc(C(C)(C)NC(=O)Nc2cccc(C#N)c2)no1"
5.38

Field request: Percent Effect | item: "O=C(C1CC=CC1)N1C[C@@H]2[C@@H](C1)OCC(=O)N2Cc1cccnc1"
2.12

Field request: Percent Effect | item: "Cc1cnn(C2CN(Cc3ccc4c(c3)OCCO4)C2)c1"
8.2

Field request: Percent Effect | item: COc1cccc(N2CCN(CC(O)c3cc(C)ccc3C)CC2)c1 (stereo not drawn)
7.45
